biological target: Lpd, SucB, AhpD (Mycobacterium tuberculosis, UniProt P9WHH9+P9WIS7+P9WQB5); construct: Lpd and SucB ORFs were amplified by PCR from M. tuberculosis H37Rv genomic DNA; The AhpD open reading frame (ORF) was amplified by PCR with engineered 5′ NdeI and 3′ NheI sites and cloned into pET11c; made in house; host or cells: E. coli BL21(DE3), pET11c; test: DTNB screening assay (Lpd/SucB/AhpD protein mixture); assay type: biochemical; details: DTNB assay, 100 nM Lpd, 175 nM SucB, 18 nM AhpD, 100 μM NADH, 75 μM DTNB, pH 7.0; read-out: IC50
Sequence (P9WHH9 whole entry, one chain of several): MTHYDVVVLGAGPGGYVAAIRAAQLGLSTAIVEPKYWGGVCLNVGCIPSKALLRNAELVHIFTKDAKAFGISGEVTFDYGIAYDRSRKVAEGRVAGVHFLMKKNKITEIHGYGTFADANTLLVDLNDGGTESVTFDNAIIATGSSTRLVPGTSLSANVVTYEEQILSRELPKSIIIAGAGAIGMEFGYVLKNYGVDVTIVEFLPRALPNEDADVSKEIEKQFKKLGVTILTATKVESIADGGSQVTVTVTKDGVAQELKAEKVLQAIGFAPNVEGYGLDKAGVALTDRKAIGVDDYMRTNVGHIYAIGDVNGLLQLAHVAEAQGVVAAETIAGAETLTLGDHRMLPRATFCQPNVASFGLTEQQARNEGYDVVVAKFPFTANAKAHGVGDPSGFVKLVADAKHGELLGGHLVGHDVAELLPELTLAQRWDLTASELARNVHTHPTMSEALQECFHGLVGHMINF
Sequence (P9WIS7 whole entry, one chain of several): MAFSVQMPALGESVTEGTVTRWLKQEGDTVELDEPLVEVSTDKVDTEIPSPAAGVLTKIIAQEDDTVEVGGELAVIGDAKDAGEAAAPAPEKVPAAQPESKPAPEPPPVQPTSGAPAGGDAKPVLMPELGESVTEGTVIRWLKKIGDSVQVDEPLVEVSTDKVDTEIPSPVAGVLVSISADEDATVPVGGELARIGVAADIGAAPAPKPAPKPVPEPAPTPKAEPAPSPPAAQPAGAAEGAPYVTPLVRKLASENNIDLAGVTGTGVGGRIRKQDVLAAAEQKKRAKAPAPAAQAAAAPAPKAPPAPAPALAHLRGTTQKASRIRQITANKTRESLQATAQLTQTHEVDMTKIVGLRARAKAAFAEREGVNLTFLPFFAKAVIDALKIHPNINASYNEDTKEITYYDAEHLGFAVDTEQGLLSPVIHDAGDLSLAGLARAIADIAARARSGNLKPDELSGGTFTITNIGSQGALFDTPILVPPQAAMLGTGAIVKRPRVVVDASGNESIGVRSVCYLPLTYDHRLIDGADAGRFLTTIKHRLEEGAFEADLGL
Measured Quantity: IC50 (µM)
The reply should be a number in µM, with the unit left off.

Entry `O=C(O)c1ccc(N2C(=O)/C(=C/c3ccc(-c4ccc(Br)cc4)o3)C=C2c2ccccc2)cc1` has what IC50? 4.2

---

Biological target: AhpD (Mycobacterium tuberculosis)
Sequence (P9WQB5 1-177): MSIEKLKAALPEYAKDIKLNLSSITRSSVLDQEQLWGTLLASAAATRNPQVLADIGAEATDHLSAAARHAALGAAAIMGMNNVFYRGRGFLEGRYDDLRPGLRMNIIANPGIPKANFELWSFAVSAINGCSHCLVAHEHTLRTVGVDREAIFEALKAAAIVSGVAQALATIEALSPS
Measured Quantity: pKi
Reminder that pKi means the negative base-10 logarithm of the concentration expressed in mol/L.

Form field: pKi recorded for `Cc1cc(C)cc(/N=C2/NC(=O)/C(=C\c3cc(Br)c(O)c([N+](=O)O)c3)S2)c1` with AhpD (Mycobacterium tuberculosis) (enter value) 5.30

---

molecular target: Lpd, SucB, AhpD (Mycobacterium tuberculosis, UniProt P9WHH9+P9WIS7+P9WQB5); construct: Lpd and SucB ORFs were amplified by PCR from M. tuberculosis H37Rv genomic DNA; The AhpD open reading frame (ORF) was amplified by PCR with engineered 5′ NdeI and 3′ NheI sites and cloned into pET11c; made in house; host or cells: E. coli BL21(DE3), pET11c; assay: DTNB screening assay (Lpd/SucB/AhpD protein mixture); format: biochemical
Listing of entries alongside the reported pIC50.
Reminder that pIC50 means the negative base-10 logarithm of the concentration expressed in mol/L.

Example entries begin here.
smiles_str=O=C(O)CN1C(=O)/C(=C\c2ccc(-c3cccc(Cl)c3Cl)o2)SC1=S measured_quantity=pIC50 meas_value=5.09
smiles_str=O=C(O)CCN1C(=O)/C(=C\c2ccc(-c3cccc(C(F)(F)F)c3)o2)SC1=S measured_quantity=pIC50 meas_value=5.36

Entry `Cc1cc(C)cc(/N=C2/NC(=O)/C(=C\c3cc(Br)c(O)c([N+](=O)O)c3)S2)c1` has what pIC50? 4.98
